Target: UniProtKB P00432
Sequence (P00432 2-527): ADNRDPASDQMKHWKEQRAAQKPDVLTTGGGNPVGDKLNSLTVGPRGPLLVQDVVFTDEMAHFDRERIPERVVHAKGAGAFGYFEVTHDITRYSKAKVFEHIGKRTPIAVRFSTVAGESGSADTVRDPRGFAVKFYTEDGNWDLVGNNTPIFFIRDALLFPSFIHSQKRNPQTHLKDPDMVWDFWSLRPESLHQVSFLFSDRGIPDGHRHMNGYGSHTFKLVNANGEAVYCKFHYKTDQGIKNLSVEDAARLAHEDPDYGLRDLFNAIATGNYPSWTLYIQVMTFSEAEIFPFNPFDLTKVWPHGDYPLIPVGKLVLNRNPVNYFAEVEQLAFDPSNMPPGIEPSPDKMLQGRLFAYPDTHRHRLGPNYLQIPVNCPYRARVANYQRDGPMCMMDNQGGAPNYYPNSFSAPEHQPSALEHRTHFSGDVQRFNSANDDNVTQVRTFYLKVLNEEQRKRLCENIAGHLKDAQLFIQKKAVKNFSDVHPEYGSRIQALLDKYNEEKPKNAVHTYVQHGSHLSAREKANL
pKi: −log10 of the molar value.
Reported property: pKi

In [3]: df
Out[3]:
                                   compound  experimental_result
0  O=C1C=C(O)C(=O)c2ccccc21 [LAW, 2-hydroxy-1,4-naphtoquinone]                 4.80

Data origin: paper PMC7462507
